target: Glutamate receptor ionotropic, AMPA (Rattus norvegicus, UniProt P19490+P19491+P19492+P19493); assay: In vitro inhibition of [3H]AMPA binding to Ionotropic glutamate receptor AMPA.; assay type: protein-complex assay
pIC50: −log10 of the molar value.
readout-kind: pIC50

Guide cases for pIC50, answers given:
INSERT INTO results (compound, experimental_result) VALUES
  ('O=C(O)C1Cc2c(OCP(=O)(O)O)noc2CN1 (centres undefined)', '< 4.00'),
  ('CCCCc1onc(OCC(=O)O)c1CC(N)C(=O)O (centres undefined)', '< 4.00'),
  ('CC(C)(C)c1onc(OCC(=O)O)c1CC(N)C(=O)O (centres undefined)', 4.48);

Record request: pIC50 value, item NC(Cc1c(OCP(=O)(O)O)noc1-c1cccs1)C(=O)O (centres undefined)
< 4.00

Hello, the source for this data is ChEMBL document CHEMBL1129553, in case you need it.
